// data source = the supplement of paper PMC7877785

- experimental-protocol: self-splicing fitness, log relative to wild type (ln ratio); higher = more splicing; Tetrahymena group I intron in knt gene, E. coli kanamycin selection, DiMSum; sequences stand for … in CUCUCU…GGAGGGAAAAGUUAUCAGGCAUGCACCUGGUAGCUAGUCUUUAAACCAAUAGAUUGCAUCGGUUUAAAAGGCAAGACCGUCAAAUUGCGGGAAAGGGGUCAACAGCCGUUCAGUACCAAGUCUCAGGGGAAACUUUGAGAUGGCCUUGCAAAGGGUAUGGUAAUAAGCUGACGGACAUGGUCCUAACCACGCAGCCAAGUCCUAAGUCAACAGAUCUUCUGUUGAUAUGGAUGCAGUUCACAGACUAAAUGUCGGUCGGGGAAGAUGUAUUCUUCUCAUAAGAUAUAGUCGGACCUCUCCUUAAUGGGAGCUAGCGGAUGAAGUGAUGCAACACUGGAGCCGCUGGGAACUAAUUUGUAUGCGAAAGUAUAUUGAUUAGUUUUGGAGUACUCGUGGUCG;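 further: selection with 25 µg/mL kanamycin versus none on LB agar overnight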
- stated-conditions: 37 °C
endpoint: self-splicing fitness (ln)
One number for each entry.

For orientation, consider the following solved cases.
{"columns": ["sequence-record", "self-splicing fitness (ln)"],
 "data": [
  ["GCAUAGCAAUAUUACGGCCG", -0.909],
  ["CACCAGCAAUAUUACGCGUA", -0.165],
  ["UUCGAGCAAUAUUACGAGAU", -2.34],
  ["AGAUAGCAAUAUUACGUAAU", -0.657],
  ["AUAUAGCAAUAUUACGGCAC", 0.951]
]}

Give self-splicing fitness (ln) for each listed item.
1. CGUGAGCAAUAUUACGACUU
2. AGUCAGCAAUAUUACGAAUG

Output:
1: -1.71; 2: -0.853

Give self-splicing fitness (ln) for each listed item.
1. CCCGAGCAAUAUUACGAGGU
2. GAAGAGCAAUAUUACGCUUC
3. ACCUAGCAAUAUUACGUCAU
4. UGCGAGCAAUAUUACGAGAU
5. UCCCAGCAAUAUUACGAUUC
6. GAUUAGCAAUAUUACGAGAG

Output:
[-3.11, -1.37, -1.63, -3.21, -1.97, -1.83]

Give self-splicing fitness (ln) for each listed item.
1. GCCAAGCAAUAUUACGCAAG
2. UUCAAGCAAUAUUACGAGUG
3. CGGUAGCAAUAUUACGUAAC
4. CGCCAGCAAUAUUACGUUGA
5. AACUAGCAAUAUUACGGCAC
6. UCUGAGCAAUAUUACGCAAG
7. CCUGAGCAAUAUUACGAAAU
8. UCAAAGCAAUAUUACGCUCC

Output:
1. -1.7
2. -0.257
3. -2.06
4. -2.83
5. -0.192
6. -2.16
7. -0.975
8. -2.37

Give self-splicing fitness (ln) for each listed item.
1. CUGAAGCAAUAUUACGCCCU
2. UGUCAGCAAUAUUACGCUAG

Output:
1. -2.86
2. -0.214

Give self-splicing fitness (ln) for each listed item.
1. AUCAAGCAAUAUUACGCAAG
2. GACCAGCAAUAUUACGGGCU
3. CGGCAGCAAUAUUACGGUGA
4. UUCUAGCAAUAUUACGGGGA
5. AGCGAGCAAUAUUACGAGGG

Output:
[-0.935, -1.96, -1.75, -0.995, -1.19]

Give self-splicing fitness (ln) for each listed item.
1. CGCAAGCAAUAUUACGGGUA
2. CAGUAGCAAUAUUACGACAA
3. CCAGAGCAAUAUUACGACAU
4. GCCAAGCAAUAUUACGCUAA
5. UUACAGCAAUAUUACGAACG
6. AGUAAGCAAUAUUACGAGUG
7. AGCAAGCAAUAUUACGAUAC
8. UCCCAGCAAUAUUACGCCGG

Output:
1: -0.81; 2: -1.62; 3: -3.03; 4: -1.37; 5: -0.112; 6: -3.04; 7: -1.72; 8: -1.21

Give self-splicing fitness (ln) for each listed item.
1. CGGAAGCAAUAUUACGGACU
2. GUCUAGCAAUAUUACGACUU
3. AAGAAGCAAUAUUACGGCGG
4. UACAAGCAAUAUUACGCGUA
5. AAUAAGCAAUAUUACGAUGU
6. AAUGAGCAAUAUUACGUACA

Output:
1: -0.0682; 2: -0.56; 3: -0.664; 4: -2.76; 5: -0.682; 6: -3.21

Give self-splicing fitness (ln) for each listed item.
1. ACCAAGCAAUAUUACGCCCU
2. UCUUAGCAAUAUUACGCCUA
3. CCUUAGCAAUAUUACGAUGC

Output:
1. 0.663
2. -2.71
3. -2.62
